# Tested on: HEK293T
# experiment: median enrichment of reporter reads in eGFP-reduced (low/intermediate) vs eGFP-high sorted cells (eGFP-extension fusion abundance) (ratio); higher = stronger loss of eGFP-fusion protein abundance (more destabilising extension)
Returns yes if the recorded median enrichment is greater than or equal to 7, and no otherwise.

These recorded examples may help you get a feel for the data.
substance="CSQVGFA [TUSC3]" assigned_category=no
substance="LSSQLPGPLP [COMMD9]" assigned_category=no
substance="QSWWPQPLASDTLYLKNNCAL [CALB1]" assigned_category=no

Req: Threshold query (median enrichment >= 7) on SKRPGRKPPPLKVVFVTVLWSIVLKMGNYILLCQGQQTPAVKGIPSARRLFGACMFIAPARPDRGLLHKPCLVHFFTCKGTEC [AHNAK]
Resp: yes

---

# Tested on: HEK293T
# experiment: median enrichment of reporter reads in eGFP-reduced (low/intermediate) vs eGFP-high sorted cells (eGFP-extension fusion abundance) (ratio); higher = stronger loss of eGFP-fusion protein abundance (more destabilising extension)
measured_parameter: median enrichment
Give bare numbers.

Before answering, review these 4 worked examples.
substance="LFVKLCLIM [GPR112]" data_value=13.7
substance="RKFLLNISVGSCYQNFGYDFLGSVYFGCILNYGNGIYLLLTVNLFF [CCDC181]" data_value=5.89
substance="HHHHHHHH [His08]" data_value=0.421
substance="LIGCMEK [BTN3A1]" data_value=11.1

Quick one: give me median enrichment for each item below, same order please.
1. RAAPPSGQKLK [ALG1L]
2. WGPPRARRTGTELSRGRSPRQAQLV [CDS2]
3. LAGWDHPPAPQLHALP [INSYN2B]
4. WPMLNTHV [NABP1]
5. EEEEEEEEEE [Glu10]
6. SQKHVHFGKQACILPVQYLHSTDGTVWRSTFSYFCESIHVGPVSRICTFVPSTVTANLSV [ARHGEF3]

Resp:
[0.251, 11.7, 0.774, 0.435, 0.42, 10.6]

Required: median enrichment, one value per substance below.
1. SRMGLSL [APOBEC3G]
2. ECPARAAAPATLPRVAFRAAPRVGNLGARGGRLGVPFFFSFSFAFRLFYFFLK
3. SVRLDWGGWHCVGGQLSI [ACTL10]

Resp:
0.634
15.7
13.7

---

Give measured median enrichment for each item. Keep answers brief.
# System: HEK293T
# experiment: median enrichment of reporter reads in eGFP-reduced (low/intermediate) vs eGFP-high sorted cells (eGFP-extension fusion abundance) (ratio); higher = stronger loss of eGFP-fusion protein abundance (more destabilising extension)
Give bare numbers.

Reference set (4 entries):
sequence_data="ASVLLRGAVCGEGLSWQGKHLRVTLTLGPLLFLKRLLATGKKNDLATLEETSAKEDVLASLSYFCSVVDLHIVVYLVWKCVSK [POLR1D]" data_value=7.42
sequence_data="LNRQDRLWERGSFHKRKMVGLFPE [C10orf53]" data_value=7.23
sequence_data="GLPPWSLNPAPTSCLFS [PRDM10]" data_value=5.78
sequence_data="WSGKLGAFGLKGRMFPVFLDNKLGK [PKHD1]" data_value=11.8

Quick batch: median enrichment for everything below.
1. QHGETPSLLKIQKKLARHGGGRL [FBLIM1]
2. SVGTAQWRRGYSPG [HTR3A]
3. CGPDCSLHSAHSICSHPPSLTQPPLSGILPQMRSERQ [ABHD6]

Resp:
1. 0.0978
2. 28
3. 0.625

# per-item lookup of median enrichment; items listed below
1. TMEPPGGRQKKR [Degron FEM1C]
2. LFSTEIQNISLTALRCVC [NIPSNAP3B]
3. LPAAPGTRGYTPVSLRE [KRTAP12-3]
4. ETGPTHHSPSPSISTWCLVPVHSVNKKP [KLK11]
5. WLLITLSHFLVMH [KRTAP22-2]
6. SGLWPGTRSHLAGRWLLPQFSLENPQLSTHPLPQNQFQ [RBM42]
7. WNEPWSPLQSSPWDRDVAGQNSQLCVCVFRLIGNSKSLLPAPSKLDGQWSGIETVV [IL18RAP]
8. WALGLKSQLFLSCSV [DIRAS3]

Resp:
1: 0.496; 2: 6.41; 3: 0.986; 4: 2.42; 5: 13.9; 6: 9.36; 7: 5.03; 8: 35.7

Working through the 8 sequences below one at a time, give median enrichment for each.
1. RCLELCCCQHDLFGA [TPH2]
2. RCTKDLLF [GNA13]
3. LSLLIQKWGQFRKNYLLFAWWFFIMDLAQKKNC [GART]
4. PHAQSPPIPHAAPPQSQATSCLLLVGGGLLSPSSLTFNLTLTLHRAPTLHPSWKAGLMASHWPPPPDQSVLFRGLAPFPVSLK [LGALS9]
5. LAPLGLEFATGRILQRQVVPGPLLHPFSRRPCQRLHPVVNLVWRQRLRGWTSIVGQGLTLQGFCSWLWTPENPLLPSPNTRFL [FAM110A]
6. REGSNGSRELDTVHPNTSPPPGHLEESSARIPRQSSPPAPAVPSCAVLLPHSAPGPCPFIPLKHPLKPLHHFHSQQKVIEHLL [HAUS5]
7. EDTPSPDSTGNRSSPDSPPRRASPRPCTGSEASVTLPLCSPVP [KDM2A]
8. LRRIQICVCVCVCVCVCVCVCVSLCLCIG [KIFC1]

Resp:
1: 5.32; 2: 1.38; 3: 11.7; 4: 5.55; 5: 6.38; 6: 7; 7: 0.106; 8: 24.3

---

# Tested on: HEK293T;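 note: lentiviral eGFP-IRES-mCherry reporter pool sorted by FACS 96 h post-transduction, gated on mCherry-high cells, Illumina read counts normalized per million, median across four biological replicates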
# experiment: median enrichment of reporter reads in eGFP-reduced (low/intermediate) vs eGFP-high sorted cells (eGFP-extension fusion abundance) (ratio); higher = stronger loss of eGFP-fusion protein abundance (more destabilising extension)
Assign class by median enrichment: not lower than 2 means Met; lower than 2 means Not met.

Example cases with answers are listed next.
substance="CTLGAVSSKSL [ZFC3H1]" assayed_system=HEK293T assigned_category="Not met"
substance="SRSRDDALFSAIYPKLFQI [PCDHB5]" assayed_system=HEK293T assigned_category=Met
substance="LSRLCTQGPSLATSLPFCLTPGHPSSLPHAQLPESPLCLTSPSTNGTPEGL [CYP11B1]" assayed_system=HEK293T assigned_category=Met

Req: Does the reported median enrichment for RLNICSVLKLMCFVGV [FBXL4] fall at or above the 2 mark?
Resp: Met

Req: Entry CALYLGSGQELHLGTNSC [ABCF2] : is its median enrichment no less than 2?
Resp: Met

Req: Determine whether measured median enrichment meets or exceeds 2 for LPSRSTATQVYLPLPSNPFPRAIFISPNKRAPRK [HRC]
Resp: Met

Req: Could you verify whether the entry WHLTNHSTEHTFIFVSAFVLKLSKYIHLCNRNL [ADGRV1] shows median enrichment of no less than 2?
Resp: Met

Req: hey, is median enrichment for this one >= 2? GFHSRGCCKQRDCHLELGWQGRAASFDSESSCPSPKPPPTP [SYT6]
Resp: Not met

Req: Please indicate if the recorded median enrichment for CLQGSKLQR [OR7A5] meets or exceeds 2.
Resp: Met

Req: State whether the measured median enrichment reaches 2, counting equality as reaching it, for CHRGKRRKSC [CLDN1]
Resp: Not met

Req: hey, is median enrichment for this one >= 2? YEKCVVCGADSGHHVDSLALPQATSPGTIFLP [BTD]
Resp: Met

Req: Threshold query (median enrichment >= 2) on WPLQQNSFVLCGAMPSLTPNRVSVILRTFYPQHL [CPNE3]
Resp: Met

Req: hey, is median enrichment for this one >= 2? YRNLENYTCFSEIITEYT [ABCD3]
Resp: Met

Req: Could you tell me if the measured median enrichment of EGLPFPKPRVMSNCNQAQNQRPGCEIHTSLELVVSSWPQQLFPVLTG [PHF11] reaches 2 or more?
Resp: Met

Req: Could you please find out whether YPILKVALFLLDLAELVAWGVGEIKRT [SPCS2] has median enrichment that meets 2 or exceeds it?
Resp: Met

Req: Check if median enrichment >= 2 (inclusive). Item: LGHRQESVWAGLFNMVFAVLPPWGPWSDNIVSLVRLSRCLIRTANGASPTPPRVRPPFHQRVSSQRPPASCPAAQEEKEGLNS [PDGFB]
Resp: Met

Req: Does SEEQPSFVPVVFIKYPLHP [WDR54] have a reported median enrichment of at least 2?
Resp: Met

Req: Determine whether this substance has median enrichment no lower than 2: LAHEPTRMSSDFQPHPSGSCAKGGGRR [TREM1]
Resp: Not met

Req: Please check the record GGTPEKMPGLIVPPQDMDSMWGQEGYLLPGKAISSSPVWGGMRPAPLVNTPFPRSSLPVLGGS [CIC] and state if its median enrichment is at or above 2.
Resp: Met
